target-system: Phosphodiesterase 4 (Homo sapiens, UniProt P27815+Q08499+Q07343+Q08493)
experiment-summary: Inhibition of guinea pig ventricular Phosphodiesterase 4
Assay type: protein assay, Cavia porcellus
test-settings: target entry is the homologue from another species
property-measured: IC50 (µM)

Consider CCn1nc(-c2ccccc2)c2c(C)nnc-2c1O . Its measured IC50 is 2

Consider CCOC(=O)c1nc2c(O)n(CC)nc(-c3ccccc3)c-2c1C . Its measured IC50 is 0.6

Consider CCn1nc(-c2ccccc2)c2c(c1=O)N(C)CC(C#N)=C2C . Its measured IC50 is 1.1

[a] CCOC(=O)c1sc2c(=O)n(CC)nc(-c3cccc(Cl)c3)c2c1C
[b] CCOC(=O)c1nc2c(O)n(Cc3ccccc3)nc(-c3ccccc3)c-2c1C
[c] CCOC(=O)c1sc2c(=O)n(CC)nc(-c3cccc([N+](=O)[O-])c3)c2c1C
[d] CCOC(=O)c1sc2c(=O)n(Cc3ccccc3)nc(-c3ccccc3)c2c1C
Ask: Ranking field: IC50; order: falling. The response must list the labels following the requested ordering.
Result: b, d, c, a
(b: 31 µM, d: 11 µM, c: 1.3 µM, a: 0.8 µM)

[A] CCOC(=O)c1sc2c(=O)n(CC)nc(-c3ccccc3)c2c1C
[B] Cc1nnc2c(O)n(Cc3ccccc3)nc(-c3ccccc3)c1-2
Ask: // returns A or B , whichever has the lower IC50 Respond with the label that goes with your answer.
Result: A
(A: 0.9 µM, B: 3.1 µM)

[A] O=c1c2cccnc2c(-c2cccc(Cl)c2)nn1Cc1ccncc1
[B] CCn1nc(-c2ccccc2)c2c(C)nn(C)c2c1=O
Ask: // returns A or B , whichever has the lower IC50 Respond with the label that goes with your answer.
Result: A
(A: 0.056 µM, B: 7.4 µM)

###

target-system: Phosphodiesterase 4 (Rattus norvegicus) (UniProt P14270+P14646+P14644+P54748)
experiment-summary: Displacement of [3H]rolipram from rat brain membranes at 10 uM
Type: cell membranes
test-settings: Membrane
property-measured: inhibition (%)

Consider CCOC(=O)c1nc2c(O)n(Cc3ccccc3)nc(-c3ccccc3)c-2c1C . Its measured inhibition is 28

Consider CCn1nc(-c2ccccc2)c2c(C)nn(C)c2c1=O . Its measured inhibition is 46

[a] Cc1nn(C)c2c(=O)n(Cc3ccccc3)nc(-c3ccccc3)c12
[b] Cc1nnc2c(O)n(Cc3ccccc3)nc(-c3ccccc3)c1-2
Ask: Could you please tell me which of these two has the higher inhibition: a or b ? Respond with the label that goes with your answer.
Result: b

###

target-system: Phosphodiesterase 3 (Homo sapiens, UniProt Q14432+Q13370)
experiment-summary: Inhibition of guinea pig ventricular Phosphodiesterase 3 at 20 uM
Format: protein assay
test-settings: Cavia porcellus, target entry is the homologue from another species
property-measured: inhibition (%)

Sample records with inhibition:
Consider CCOC(=O)c1sc2c(=O)n(Cc3ccccc3)nc(-c3ccccc3)c2c1C . Its measured inhibition is 20

Consider CCOC(=O)c1nc2c(O)n(CC)nc(-c3ccccc3)c-2c1C . Its measured inhibition is 30

Consider CCn1nc(-c2ccccc2)c2c(C)nnc-2c1O . Its measured inhibition is 35

Consider CCn1nc(-c2ccccc2)c2c(c1=O)N(C)CC(C#N)=C2C . Its measured inhibition is 51

Consider CCn1nc(-c2ccccc2)c2c(C)nn(C)c2c1=O . Its measured inhibition is 35

Consider CCOC(=O)c1sc2c(=O)n(CC)nc(-c3cccc([N+](=O)[O-])c3)c2c1C . Its measured inhibition is 25

[a] CCOC(=O)c1nc2c(O)n(Cc3ccccc3)nc(-c3ccccc3)c-2c1C
[b] CCOC(=O)c1sc2c(=O)n(CC)nc(-c3cccc(Cl)c3)c2c1C
Ask: // returns a or b , whichever has the lower inhibition Respond with the label that goes with your answer.
Result: a
(a: 33%, b: 56%)
